- System: DU-145
- Experiment Summary: SRB colorimetric assay of cell growth and viability, DU-145
- Format: cell-based, human
- Study Conditions: 48 hours exposure, SRB

| Molecule | GI50 [nM] |
| --- | --- |
| C/C=C1\NC(=O)[C@H](Cc2ccc([N+](=O)[O-])cc2)NC(=O)[C@@H](C(C)C)NC(=O)[C@@H]([C@@H](C)CC)NC(=O)[C@H](NC(=O)[C@H](NC(=O)[C@H](CCCN)NC(=O)[C@H]2CCCN2C(=O)[C@H](NC(=O)[C@@H](NC(=O)[C@@H](NC(=O)[C@H](NC(=O)CC[C@@H](C)CC)C(C)C)[C@@H](C)O)C(C)C)C(C)C)[C@@H](C)CC)[C@@H](C)OC(=O)[C@H](C(C)C)NC1=O [Compound 73, [Phe(4-NO2)^3, (4S)-MeHex^14]-KF] | 233 |
